Origin of values: patent US10800772B2

system: HIV-IIIb IN T174I DE; assay: Antiviral assay in MT4 cells, HIV-IIIb IN T174I DE virus (from dose escalation passaging); assay type: cell-based, HIV-1; details: Human immunodeficiency virus 1, IIIB, MT4, 120 h, read-out: T174I DE EC50, MT4 cells, HIV-IIIb IN T174I DE (dose escalation), 5 days, CellTiter-Glo
pEC50: −log10 of the molar value.
Criterion: pEC50 meeting or surpassing 6. Met: Satisfied. Not met: Not satisfied.

* COC(=O)N1CC[C@H](N2CCC(c3nn(C)c4ccc(-c5nc6cc(C)c([C@H](OC(C)(C)C)C(=O)O)c(-c7ccc(Cl)cc7)c6s5)cc34)CC2)C1 [Compound 162] | Satisfied
* Cc1cc2nc(-c3ccc4c(c3)c(C3CCN(C5COC5)CC3)nn4C3CC3)sc2c(-c2ccc(Cl)cc2)c1[C@H](OC(C)(C)C)C(=O)O [Compound 38] | Satisfied
* Cc1cc2nc(-c3ccc4c(c3)c(N3CC(C)(C)N(C)C3=O)nn4C)sc2c(-c2ccc(Cl)cc2)c1[C@H](OC(C)(C)C)C(=O)O [Compound 122] | Not satisfied
* Cc1cc2nc(-c3ccc4c(c3)c(C3CCN([C@@H]5CCN(C)C5)CC3)nn4C)sc2c(-c2ccc(Cl)cc2)c1[C@H](OC(C)(C)C)C(=O)O [Compound 164] | Satisfied
* Cc1cc2nc(-c3ccc4c(n3)c(N3CCN(C5COC5)CC3)nn4C)sc2c(-c2ccc(Cl)cc2)c1[C@H](OC(C)(C)C)C(=O)O [Compound 15] | Not satisfied
* Cc1cc2nc(-c3cnc4c(c3)c(C3CCN(C)CC3)cn4C)sc2c(-c2ccc(Cl)cc2)c1[C@H](OC(C)(C)C)C(=O)O [Compound 106] | Not satisfied
* CC(=O)N1CC[C@H]1CN1CCC(c2nn(C)c3ccc(-c4nc5cc(C)c([C@H](OC(C)(C)C)C(=O)O)c(-c6ccc(Cl)cc6)c5s4)cc23)CC1 [Compound 151] | Satisfied
* CCn1nc(C2CCN([C@@H]3CCN(C(=O)OC)C3)CC2)c2cc(-c3nc4cc(C)c([C@H](OC(C)(C)C)C(=O)O)c(-c5ccc(Cl)cc5)c4s3)ccc21 [Compound 50] | Satisfied

* * *

A collection of molecules and their measured EC50
test system: HIV-IIIb (wildtype); assay: Antiviral assay in MT4 cells, HIV-IIIb wildtype; format: cell-based, HIV-1; settings: Human immunodeficiency virus 1, IIIB, MT4, 120 h, read-out: WT EC50
attribute-measured: EC50 (µM)

• Cc1cc2nc(-c3cnc4c(c3)c(C3CCN(C)CC3)cn4C)sc2c(-c2ccc(Cl)cc2)c1[C@H](OC(C)(C)C)C(=O)O = 0.029
• COC(=O)N1CC(N2CCC(c3nn(C4CC4)c4ccc(-c5nc6cc(C)c([C@H](OC(C)(C)C)C(=O)O)c(-c7ccc(Cl)cc7)c6s5)cc34)CC2)C1 = 0.017
• CC(=O)N1CC(N2CCC(c3nn(C)c4ncc(-c5nc6cc(C)c([C@H](OC(C)(C)C)C(=O)O)c(-c7ccc(Cl)cc7)c6s5)cc34)CC2)C1 = 0.027

* * *

tested on: HIV-IIIb IN T174I DE; assay: Antiviral assay in MT4 cells, HIV-IIIb IN T174I DE virus (from dose escalation passaging); format: cell-based, HIV-1; details: Human immunodeficiency virus 1, IIIB, MT4, 120 h, read-out: T174I DE EC50, MT4 cells, HIV-IIIb IN T174I DE (dose escalation), 5 days, CellTiter-Glo
A collection of compounds and their measured EC50
attribute-measured: EC50 (nM)

* Cc1cc2nc(-c3ccc4c(c3)c(C3CCN(C(=O)[C@@H]5CCCO5)CC3)nn4C)sc2c(-c2ccc(Cl)cc2)c1[C@H](OC(C)(C)C)C(=O)O | 789
* Cc1cc2nc(-c3ccc4c(c3)c(C3CN(C(=O)OC(C)(C)C)C3)nn4C)sc2c(-c2ccc(Cl)cc2)c1[C@H](OC(C)(C)C)C(=O)O | 57000
* Cc1cc2nc(-c3ccc4c(c3)c(N3C5CCC3CN(C3COC3)C5)nn4C)sc2c(-c2ccc(Cl)cc2)c1[C@H](OC(C)(C)C)C(=O)O | 3130
* Cc1cc2nc(-c3ccc4c(c3)c(N3CC(N(C)C)C3)nn4C)sc2c(-c2ccc(Cl)cc2)c1[C@H](OC(C)(C)C)C(=O)O | 1350
